Cited source: paper PMC5651866

# test-protocol: Cytotoxicity study (CellTiter 96 AQueous One) in LLC/MK2 cells
# Assay type: cell-based
# conditions-used: rhesus monkey; 25 μM; 48 h; read-out: Cells viability (%, means ± SEM) LLC/MK2
recorded-endpoint: viability at 48 h, 25 µM (%)
Give your result in % as a bare value.

Qu. Recall and state the measured viability at 48 h, 25 µM for COc1ccc(/C=C/C(=O)c2ccccc2O)cc1 [CH1] .
Ans. 59.1

---

# test-protocol: Cytotoxicity study (CellTiter 96 AQueous One) in THP-1 cells
# Type: cell-based
# conditions-used: human, THP-1 cells, 10 μM, read-out: Cells viability (%, means ± SEM) THP-1
recorded-endpoint: viability at 48 h, 10 µM (%)
Hi! Could you send only the number? It should be in %, unit omitted.

Qu. Give the value of viability at 48 h, 10 µM reported for the following: O=c1cc(-c2ccccc2)oc2c(I)c(O)c(I)c(O)c12 [FV14, 6,8-diiodo-5,7-dihydroxyflavone]
Ans. 86.1
